Experimental Target: Apelin receptor (Homo sapiens) (UniProt P35414)
Experiment Summary: potency against CXCR6 with APJ panel – cell-based, beta-arrestin, DiscoveRx, uHTS hits, dose response (AID 624129)
Condition Description: CXCR6 beta-arrestin (DiscoveRx) antagonist cell assay, APJ, dose range 1
pIC50: −log10 of the molar value.
Threshold rule: pIC50 greater than or equal to 5 is fulfilled; below that, not fulfilled.

>>> df
                                   compound    group_label
0  COc1cc(/C=C/c2ccc3c(Br)cc(Br)c(O)c3n2)ccc1O  not fulfilled
1          O=S(=O)(Nc1cccc2cccnc12)c1ccccc1      fulfilled
2       COc1cc(/C=C/c2ccc3cccc(O)c3n2)ccc1O  not fulfilled
3      O=C(Nc1nnc(SCc2ccc(F)cc2)s1)c1ccccn1      fulfilled
4  O=[N+]([O-])c1c(Nc2ccccc2O)cc(Cl)c2nonc12  not fulfilled
5       O=C(CSc1cccc2cccnc12)N/N=C/c1cccnc1      fulfilled
6  CC(C)(C)C(=O)NC(=S)NNC(=O)c1sc2ccccc2c1Cl  not fulfilled
7  O=[N+]([O-])c1c(Nc2ccc(O)cc2)cc(Cl)c2nonc12      fulfilled
8  C/C(=N\NC(=O)C1COc2ccccc2O1)c1ccccn1 (stereo unspecified)      fulfilled

* * *

Experimental Target: C-X-C chemokine receptor type 6 (Homo sapiens) (UniProt O00574)
Sequence (O00574 whole entry, looked up): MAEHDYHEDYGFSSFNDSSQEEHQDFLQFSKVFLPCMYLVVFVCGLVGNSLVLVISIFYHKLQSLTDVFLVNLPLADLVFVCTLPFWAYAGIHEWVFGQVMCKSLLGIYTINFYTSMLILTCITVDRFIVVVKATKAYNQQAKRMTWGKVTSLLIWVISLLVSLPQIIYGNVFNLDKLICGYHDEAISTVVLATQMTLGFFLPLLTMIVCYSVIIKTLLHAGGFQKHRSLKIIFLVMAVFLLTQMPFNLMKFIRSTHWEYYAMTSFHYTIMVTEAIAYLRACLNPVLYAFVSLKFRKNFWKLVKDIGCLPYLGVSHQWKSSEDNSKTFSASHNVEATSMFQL
Experiment Summary: potency against CXCR6 with APJ panel – cell-based, beta-arrestin, DiscoveRx, uHTS hits, dose response (AID 624129)
Condition Description: CXCR6 beta-arrestin (DiscoveRx) antagonist cell assay, CXCR6, run 1, dose range 2
Lab note: anything with IC50 below 10 µM is marked Y; values at 10 µM or higher are marked N.

>>> df
                                    compound  group_label
 0  CCN(CC)CC(C)(C)C(=O)/C=C/c1ccc(/C=C/C(=O)C(C)(C)CN(CC)CC)cc1            Y
 1  CC1(C)CC(=O)C2=C(C1)OC1=C(C(=O)CC(C)(C)C1)C2c1ccc(O)cc1O            Y
 2  Cc1ccc(CN2C(=O)C(Cc3ccccc3)Nc3ncnc(N4CCN(c5ccccc5)CC4)c32)cc1 (stereo unspecified)            Y
 3    CN(C)/C=C/c1oc2ccc(O)cc2c1[N+](=O)[O-]            N
 4  Cc1ccc(S(=O)(=O)c2ccc([N+](=O)[O-])cn2)cc1            N
 5    CC(C)(C)c1ccc(-n2nc(C#N)c(Cl)cc2=O)cc1            Y
 6     O=C1C=CC(=O)N1CCNc1ncc(C(F)(F)F)cc1Cl            N
 7  COc1ccc(CNC(=O)c2nc(S(=O)(=O)Cc3ccccc3)ncc2Cl)cc1            N
 8   Fc1ccc(Sc2nc(-c3ccccc3)nnc2C(F)(F)F)cc1            Y
 9  CN(C)CC1CC/C(=C\c2ccc(O)cc2)C1=O (stereo unspecified)            N
10  CC(Oc1cccc(Br)c1)C(=O)NNC(=O)c1ccccn1 (stereo unspecified)            N
11  COC(=O)CSc1[nH]c2ccc(Br)cc2c1[N+](=O)[O-]            N
12     O=C(Nc1nc(-c2ccccn2)cs1)Nc1ccc(F)cc1F            Y
13  CNc1ccc2oc(C[C@H]3O[C@@]4(CC[C@H]3C)O[C@H]([C@H](C)C(=O)c3ccc[nH]3)[C@H](C)C[C@H]4C)nc2c1C(=O)O            Y
14  CCOc1ccc(Nc2ccc([N+](=O)[O-])c3nonc23)cc1            N
15  Cc1cccc(CS(=O)(=O)c2ncc(Cl)c(C(=O)NCc3ccc4c(c3)OCO4)n2)c1            N
16      O=C(Nc1nnc(SCc2ccc(F)cc2)s1)c1ccccn1            Y
17                  O=C(C#Cc1ccccc1)c1ccccc1            N
18  COc1cc(/C=C/[N+](=O)[O-])ccc1OC(=O)c1cc2ccccc2oc1=O            N
19  CN(C)CCCN(C(=O)CCS(=O)(=O)c1ccccc1)c1nc2cc3c(cc2s1)OCO3            N
